Values compiled from PubChem BioAssay (NCI).

Parameter growth: see the listing below.
Tested on: A498 renal
Test: NCI-60 one-dose screen, 48 h (100 = growth as untreated, 0 = no growth, -100 = all killed)
Conditions: 10 µM unless noted
The panel holds about 83,000 compounds, 20% with a hit somewhere; the sample as a whole holds those more often.
parameter: growth (%)

>>> number("COc1cccc(-c2nn(-c3ccccc3)cc2-c2ccnc(NCCNS(=O)(=O)c3ccccc3)c2)c1")
47.7
>>> number("Cn1cc(-c2nc(-c3c[nH]c4ncccc34)cs2)c2cc(Cl)ccc21")
74.7
>>> number("Cc1cc2nc3c4cc([N+](=O)[O-])cc([N+](=O)[O-])c4n(CCN(C)C)c3nc2cc1C")
97
>>> number("COc1ccc(OCC(CO)N2CCN(c3ccccc3)CC2)cc1 (centres undefined)")
108
>>> number("COC(=O)C(Cc1ccccc1)n1cc(COc2nc(Cl)nc(Nc3ccc(Cl)cc3)n2)nn1 (centres undefined)")
61.6
>>> number("O=S(=O)(NCCNc1cc(-c2cn(-c3ccccc3)nc2-c2cccc(O)c2)ccn1)c1cccc(F)c1")
57.4
>>> number("CC1(C)C(=O)/C(=C\\c2ccco2)C[C@]2(C)[C@H]3CC[C@@H]4[C@@H](C(=O)/C=C/c5ccco5)CC[C@@]4(C)[C@]3(C)CC[C@@H]12")
91.3
>>> number("CCCC(=O)N1CCCCC1CC (centres undefined)")
90.8
>>> number("OCC1OC(n2cnc3c(Cl)ncnc32)CC1O (centres undefined)")
106

###

Tested on: 786-0 renal
Assay: NCI-60 one-dose screen, 48 h (100 = growth as untreated, 0 = no growth, -100 = all killed)
Conditions: 10 µM unless noted
About 83,000 compounds went through this panel and 20% of them were active in at least one assay; those are over-represented in the sample as a whole. Calls of active or inactive are those of the source. The calls were made as follows: active = growth percent below 10; inactive = the rest.
parameter: growth

>>> result("c1ccc(-c2nc(Nc3ccc(-c4nc5ccccc5[nH]4)cc3)nc(N3CCOCC3)n2)cc1")
"-88.9% (active)"
>>> result("CC(=O)c1c(C)[nH]c(-c2nc3ccc(N4CCN(C)CC4)cc3[nH]2)c1-c1ccc2c(c1)OCCO2")
"40.9% (inactive)"
>>> result("CC(C)=CCC[C@](C)(O)[C@H]1CC[C@]2(C)[C@@H]1CC[C@@H]1[C@@]3(C)C/C(=C/c4cccc([N+](=O)[O-])c4)C(=O)C(C)(C)[C@@H]3CC[C@]12C")
"88% (inactive)"
>>> result("CC1(C)CC[C@]2(C(=O)NCCNCCN)CC[C@]3(C)C(=CC[C@@H]4[C@@]5(C)CCC(=O)C(C)(C)[C@@H]5CC[C@]43C)[C@@H]2C1")
"78.3% (inactive)"
>>> result("O=C1CCC/C=C\\C[C@H]2C=C(Cl)C(=O)/C2=C/C[C@H](CCCCC(F)(F)F)OC(=O)CCC/C=C\\C[C@H]2C=C(Cl)C(=O)/C2=C/C[C@H](CCCCC(F)(F)F)O1")
"-55% [7.5 µM] (active)"
>>> result("CN1CCN(c2nc(-c3cccc4ccccc34)nc3sc4c(c23)CCCCCC4)CC1")
"87.7% (inactive)"
>>> result("Cc1ccc2c(c1)c1nc3cc(C)c(C)cc3nc1n2CCN(C)C")
"26.5% (inactive)"
